The reported measurements were obtained from patent US10821115B2.

target: recombinant human Mcl-1 (residues 171-327) / Bim interaction (Homo sapiens (Human)); test: biochemical; assay type: binding; conditions: TR-FRET, Mcl-1(171-327) / biotin-Bim (51-76); read-out: Mcl-1 HTRF IC50
Sequence (Q07820 171-327): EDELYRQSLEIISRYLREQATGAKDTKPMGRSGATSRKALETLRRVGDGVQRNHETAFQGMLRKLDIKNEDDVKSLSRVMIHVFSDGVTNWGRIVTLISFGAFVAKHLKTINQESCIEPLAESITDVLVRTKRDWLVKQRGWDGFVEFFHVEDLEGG
Decide using IC50 alone. Strictly below 0.2 nM: Condition met. Equal to or above 0.2 nM: Condition not met.

{"Compound": "C[C@@H]1[C@@H](C)C/C=C/[C@@](O)(C#CCCc2ccccn2)[C@@H]2CC[C@H]2CN2C[C@@]3(CCCc4cc(Cl)ccc43)COc3ccc(cc32)C(=O)NS1(=O)=O [Example 100454]", "Answer Label": "Condition not met"}
{"Compound": "C[C@@H]1[C@@H](C)CCC[C@](O)(c2ccccn2)[C@@H]2CC[C@H]2CN2C[C@@]3(CCCc4cc(Cl)ccc43)COc3ccc(cc32)C(=O)NS1(=O)=O", "Answer Label": "Condition met"}
{"Compound": "CO[C@@]1(C#CCCN2CCN(S(C)(=O)=O)CC2)/C=C/C[C@H](C)[C@@H](C)S(=O)(=O)NC(=O)c2ccc3c(c2)N(C[C@@H]2CC[C@H]21)C[C@@]1(CCCc2cc(Cl)ccc21)CO3", "Answer Label": "Condition not met"}
{"Compound": "C[C@@H]1[C@@H](C)CCC[C@](O)(C2CCN(C)CC2)[C@@H]2CC[C@H]2CN2C[C@@]3(CCCc4cc(Cl)ccc43)COc3ccc(cc32)C(=O)NS1(=O)=O", "Answer Label": "Condition met"}
{"Compound": "C[C@@H]1[C@@H](C)CCC[C@](O)(CO)[C@@H]2CC[C@H]2CN2C[C@@]3(CCCc4cc(Cl)ccc43)COc3ccc(cc32)C(=O)NS1(=O)=O (single isomer, unassigned)", "Answer Label": "Condition met"}
